tested on: SR leukemia; experiment: NCI-60 one-dose screen, 48 h; conditions: 10 µM unless noted
Compounds without any hit were thinned out: in the full panel of roughly 83,000, 20% have a hit. Calls of active or inactive are those of the source. Rule for the calls: active = growth percent below 10; inactive = the rest.
Labels: active, inactive

compound	classification
O=C(N/N=C/c1c(Cl)cccc1Cl)c1cccc(Nc2ccnc(C(F)(F)F)c2)c1	inactive
O=C(Nc1cccc(F)c1)c1cc(=O)[nH]c2cc(Br)ccc12	inactive
NC(=O)c1c(NC(=O)COC(=O)Cc2ccccc2F)sc2c1CCC2	inactive
O=C(Nc1cccc(C2=NCCN2)c1)c1cccc(C(=O)Nc2cccc(C3=NCCN3)c2)c1	inactive
CC(C)(C)c1cc(C(=O)Nc2cc3ccccc3cc2C(=O)NCCN)cc(C(C)(C)C)c1	active
CCCC[C@@H](C=O)NC(=O)[C@H](CC(C)C)NC(=O)[C@H](CC(C)C)NC(=O)OCc1ccccc1	active
C[N+](C)(C)c1ncnc2[n-]cnc12	inactive
Cc1cccc(C[C@H](NC(=O)Nc2ccc(Cl)cc2F)C(=O)N[C@@H]2C(=O)N3C[C@H](O)C[C@H]3C(=O)N3CCCC[C@H]3C(=O)N[C@@H](C)C(=O)N3C[C@H](C)C[C@H]3C(=O)O[C@H]2C)c1	inactive
CCN(CCO)CCC(=O)c1ccc([N+](=O)[O-])cc1	inactive
CCCc1cc2cc(-n3nc(C)c4c3CC(C)(C)CC4=O)cc(NC3CCSCC3)c2c(=O)[nH]1	inactive
CCN(CCNc1ccc(C)c2sc3cc(Cl)ccc3c(=O)c12)CC(C)O (stereo not given)	inactive
CCOC(=O)C(=Cc1ccccc1[N+](=O)[O-])C(=O)OCC	active
CC(C)c1ccc(C(=O)Nc2sc3c(c2C#N)CCC(=O)C3)cc1	active
COc1ccc(/C=C/C=C\C(=O)c2ccc(-n3ccnc3)cc2)cc1	inactive
O=C(C[n+]1ccn(CC(OCc2ccc(Cl)cc2Cl)c2ccc(Cl)cc2Cl)c1)c1ccc(F)cc1 (stereo not given)	active
CC(C)(C)c1cc(C(=O)Nc2ccc(C(=O)NCCN)cc2)cc(C(C)(C)C)c1	active
CCN1c2ccccc2C(Cl)(c2ccc(N(C)C)cc2)c2ccccc21	inactive
CCCCCC1CCCCN1C(=O)OCCCC (stereo not given)	inactive
Cn1cc(-c2noc(-c3cn(C)c4ncccc34)n2)c2cc(Cl)ccc21	inactive
CC(=O)OC[C@]12CC[C@@H]([C@@H](C)C(N)=O)[C@@H]1[C@H]1CC[C@@H]3[C@@]4(C)CC[C@H](OC(C)=O)C(C)(C)[C@@H]4CC[C@@]3(C)[C@]1(C)CC2	inactive
Nc1nc(Nc2ccccc2)c2ncn(Cc3cc4c(cc3Br)OCO4)c2n1	inactive
CC1(C(=O)O)CCC(N)(C(=O)O)C1(C)C (stereo not given)	inactive
O=C1CC(C(F)(F)F)Cc2nc3ccc(Br)cc3cc21 (stereo not given)	inactive
CCC(Br)(CC)C(=O)c1ccc(OCC(=O)O)c(Cl)c1Cl	inactive
CCn1cc(-c2[nH]c(=S)ncc2-c2ccc(Cl)cc2)c(-c2ccc(Br)cc2)n1	inactive
CCCOc1ccc(-c2nc(-c3ccc(N)cc3)cs2)cc1	inactive
COc1ccc(C(C(=O)O)c2ccc(OC)cc2)cc1	inactive
C=CCCCCCCCCC(=O)OC(C)C	inactive
COC(=O)[C@]12CCC(C)(C)C[C@H]1C1=CC[C@@H]3[C@@]4(C)C/C(=C/c5cccnc5)C(=O)C(C)(C)[C@@H]4CC[C@@]3(C)[C@]1(C)CC2	inactive
CC[C@@](C)(NC(=O)[C@H](C)NC(=O)CCNC(=O)C(C)(C)NC(=O)[C@H](C)NC(=O)[C@@H]1CCCN1C(=O)[C@@](C)(CC)NC(=O)[C@H](Cc1ccccc1)NC(=O)C1CCCN1C(=O)C(C)(C)NC(=O)C1CCCN1C(=O)C(C)(C)NC(C)=O)C(=O)NCCC(=O)N[C@@H](CC(C)C)C(=O)NC(C)(C)C(=O)NCCC(=O)N[C@@H](CC(C)C)C(=O)NC(C)(C)C(=O)NC(C)(C)C(=O)N[C@@H](CC(C)C)C(=O)NCCC(=O)NCO (stereo not given in full)	active
Cc1cccc(C[C@H](NC(=O)Nc2ccc(C)cc2F)C(=O)N[C@@H]2C(=O)N3C[C@H](O)C[C@H]3C(=O)N3CCN(C)C[C@H]3C(=O)N[C@@H](C)C(=O)N3C[C@H](C)C[C@H]3C(=O)O[C@H]2C)c1	inactive
CSc1nc2sc3cc(Cl)c(Cl)cc3n2c(=N)c1C#N	inactive
CC/C=C(\C)C(CCC)(CN=O)C(=O)OCC (stereo not given)	inactive
O=C1/C(=C\c2cccn2Cc2ccccc2)c2ccccc2N1c1c(Cl)cccc1Cl	inactive
Cc1ccc(-n2nc3n(/c2=N\C(=O)NS(=O)(=O)c2ccc(C)cc2)CCN3C2=NCCN2)cc1	inactive
